Just for reference, ChEMBL document CHEMBL1123985 is where these values come from.

- ASSAY_PROCEDURE: Mean plasma levels in rats 1 hr after iv administration of 100 mg/kg of probenecid 5 min prior to test compound
- Assay type: ADME, organism-based
- Parameters: dose 100 mg/kg, route intravenous
- ASSAY_SETUP: rat, read-out: Plasma level
PROPERTY_NAME: concentration at 1 h (ng/mL)

[
  {
    "MOLECULE": "CC1(C)S[C@@H]2[C@H](NC(=O)COc3ccccc3)C(=O)N2[C@H]1C(=O)O [PENICILLIN V]",
    "PROPERTY_NAME": "concentration at 1 h",
    "UNIT_ABBREVIATION": "ng/mL",
    "MEASURED_NUMBER": 6800
  }
]

----------
- ASSAY_PROCEDURE: Dose in urine (24-h urine excretion) in female mongrel dogs after iv administration of single 15 mg/kg dose
- Type: ADME, organism-based, Canis lupus familiaris
- Parameters: dose 15 mg/kg, route intravenous
- ASSAY_SETUP: dog

[
  {
    "SMILES_NOTATION": "O=C(Cc1ccccc1)N[C@@H]1C(=O)N2C(C(=O)O)=C(Cl)CS[C@H]12",
    "dose excreted (%)": 67
  },
  {
    "SMILES_NOTATION": "Nc1nc(CC(=O)N[C@@H]2C(=O)N3C(C(=O)O)=C(Cl)CS[C@H]23)cs1",
    "dose excreted (%)": 36
  },
  {
    "SMILES_NOTATION": "O=C(Cc1cccs1)N[C@@H]1C(=O)N2C(C(=O)O)=C(Cl)CS[C@H]12",
    "dose excreted (%)": 75
  },
  {
    "SMILES_NOTATION": "O=C(COc1ccccc1)N[C@@H]1C(=O)N2C(C(=O)O)=C(Cl)CS[C@H]12",
    "dose excreted (%)": 48
  }
]

----------
- System: Salmonella
- ASSAY_PROCEDURE: Minimum inhibitory concentration against X514 strain of Salmonella
- Assay type: functional
PROPERTY_NAME: MIC (µg/mL)

[
  {
    "SMILES_NOTATION": "CC1=C(C(=O)O)N2C(=O)[C@@H](NC(=O)COc3ccccc3)[C@H]2SC1",
    "UNIT_ABBREVIATION": "µg/mL",
    "COMPARISON_SYMBOL": ">",
    "MEASURED_NUMBER": 128
  },
  {
    "SMILES_NOTATION": "O=C(Cc1cccs1)N[C@@H]1C(=O)N2C(C(=O)O)=C(Cl)CS[C@H]12",
    "UNIT_ABBREVIATION": "µg/mL",
    "COMPARISON_SYMBOL": "=",
    "MEASURED_NUMBER": 2
  },
  {
    "SMILES_NOTATION": "O=C(Cc1ccccc1)N[C@@H]1C(=O)N2C(C(=O)O)=C(Cl)CS[C@H]12",
    "UNIT_ABBREVIATION": "µg/mL",
    "COMPARISON_SYMBOL": "=",
    "MEASURED_NUMBER": 4
  },
  {
    "SMILES_NOTATION": "O=C(Cc1ccccc1)N[C@@H]1C(=O)N2C(C(=O)O)=CCS[C@H]12",
    "UNIT_ABBREVIATION": "µg/mL",
    "COMPARISON_SYMBOL": "=",
    "MEASURED_NUMBER": 8
  },
  {
    "SMILES_NOTATION": "O=C(Cc1csc2ccc(Cl)cc12)N[C@@H]1C(=O)N2C(C(=O)O)=C(Cl)CS[C@H]12",
    "UNIT_ABBREVIATION": "µg/mL",
    "COMPARISON_SYMBOL": "=",
    "MEASURED_NUMBER": 128
  },
  {
    "SMILES_NOTATION": "C=CC1=C(C(=O)O)N2C(=O)[C@@H](NC(=O)Cc3csc(N)n3)[C@H]2SC1",
    "UNIT_ABBREVIATION": "µg/mL",
    "COMPARISON_SYMBOL": "=",
    "MEASURED_NUMBER": 2
  },
  {
    "SMILES_NOTATION": "C=CC1=C(C(=O)O)N2C(=O)[C@@H](NC(=O)COc3ccccc3)[C@H]2SC1",
    "UNIT_ABBREVIATION": "µg/mL",
    "COMPARISON_SYMBOL": ">",
    "MEASURED_NUMBER": 128
  },
  {
    "SMILES_NOTATION": "Cc1nc(CC(=O)N[C@@H]2C(=O)N3C(C(=O)O)=C(Cl)CS[C@H]23)cs1",
    "UNIT_ABBREVIATION": "µg/mL",
    "COMPARISON_SYMBOL": "=",
    "MEASURED_NUMBER": 4
  },
  {
    "SMILES_NOTATION": "COC1=C(C(=O)O)N2C(=O)[C@@H](NC(=O)Cc3csc(N)n3)[C@H]2SC1",
    "UNIT_ABBREVIATION": "µg/mL",
    "COMPARISON_SYMBOL": "=",
    "MEASURED_NUMBER": 2
  }
]
